System: L1210 leukemia ip in BDF1 mice, survival T/C
assay details: NCI In Vivo Anticancer Drug Screen. Data for tumor model L1210 Leukemia (intraperitoneal) in B6D2F1 (BDF1) mice
condition set: endpoint: mean survival time; dose: 25.0 mg/kg/injection; schedule: Q04DX003 (ip); vehicle: Klucel (hydroxypropylcellulose) (HPC); higher = longer survival
Inconclusive results and toxic doses are left out.
reported property: T/C

Value lookup for T/C; key = `N=C(N=Nc1c(O)[nH]c2ccccc12)N[N+](=O)[O-]`
102 % of control

Endpoint output: T/C of `CC[n+]1c(C)sc2cc3c(cc21)OCO3` . Value?
102 % of control

What value of T/C has been recorded for this entry: S=C=NCC(Br)CBr (centres undefined)
105 % of control

Recorded T/C for `O=C(O)/C=C/Sc1ccccc1` , please?
104 % of control

What does the data say about its T/C? Entry: COc1ccc2c3c1OC1C4(CCC5C(C2)N(CC2CC2)CCC351)OCCO4 (centres undefined)
103 % of control

GET /values?readout=T/C&item= CSc1ncnc2c1ncn2C1OC(CO)C(O)OC1O (centres undefined)
104 % of control

Please give the measured T/C for this compound: `O=C(CBr)Nc1ccc(C(=O)O)c(O)c1`
92 % of control

Name the recorded T/C for `NN(CC1=COc2ccccc2O1)Cc1ccccc1` .
92 % of control

Entry under review: `COc1cccc(/C=C/[N+](=O)[O-])c1` . Reported T/C?
89 % of control

====

Test system: L1210 leukemia ip in BDF1 mice, survival T/C
assay details: NCI In Vivo Anticancer Drug Screen. Data for tumor model L1210 Leukemia (intraperitoneal) in B6D2F1 (BDF1) mice
condition set: endpoint: mean survival time; dose: 200.0 mg/kg/injection; schedule: Q01DX009 (ip); vehicle: saline; higher = longer survival
Inconclusive results and toxic doses are left out.
reported property: T/C

Query (molecule): CC1c2c(ccc3c2CCC=C3)CCC1CC1=CCCc2ccc3ccccc3c21 (stereo not drawn) ; field requested: T/C
95 % of control

I have this molecule here, CC1(C)SC2C(NC(=O)C(C(=O)O)c3ccccc3)C(=O)N2C1C(=O)O (stereo not drawn) , and I need its recorded T/C.
105 % of control

What value of T/C has been recorded for this entry: `NNC(=O)CCO`
100 % of control

Field request: T/C | item: O=C1CC(c2ccccc2Cl)N(S(=O)(=O)c2ccccc2)N1 (stereo not drawn)
107 % of control

Form field: reported T/C of `COCc1ncc2cnccn12`
93 % of control

Look up T/C for this molecule: CC(O)C[N+](=O)[O-] (stereo not drawn)
106 % of control

I have this molecule here, CC(=O)OC1C=COC(C)C1OC(C)=O (stereo not drawn) , and I need its recorded T/C.
93 % of control

Entry `O=[N+]([O-])c1cccc(S(=O)(=O)O)c1` has what T/C?
93 % of control

So what's the measured T/C for this one? C=CCOCC(O)CNCCCOC (stereo not drawn)
98 % of control

Name the reported T/C value associated with the molecule `CCOC(=O)CNCc1cccc(Cl)c1`
95 % of control

Sample `CNc1nc2ncn(C)c2c(=O)[nH]1` — what was its T/C?
98 % of control

Endpoint output: T/C of `CCCCCCCCCCOC(=O)COc1ccc(C(C)(C)C)cc1` . Value?
98 % of control

Quick one: T/C of `O=C(COc1ccc(Cl)c(Cl)c1)NCc1ccc[n+](CC(=O)Nc2ccc(S(=O)(=O)F)cc2)c1` ?
94 % of control
